Just for reference, patent US20230062100A1 is where these values come from.

Molecular target: DGKα (Homo sapiens, UniProt P23743)
Sequence (P23743 with tags, fused parts or gaps): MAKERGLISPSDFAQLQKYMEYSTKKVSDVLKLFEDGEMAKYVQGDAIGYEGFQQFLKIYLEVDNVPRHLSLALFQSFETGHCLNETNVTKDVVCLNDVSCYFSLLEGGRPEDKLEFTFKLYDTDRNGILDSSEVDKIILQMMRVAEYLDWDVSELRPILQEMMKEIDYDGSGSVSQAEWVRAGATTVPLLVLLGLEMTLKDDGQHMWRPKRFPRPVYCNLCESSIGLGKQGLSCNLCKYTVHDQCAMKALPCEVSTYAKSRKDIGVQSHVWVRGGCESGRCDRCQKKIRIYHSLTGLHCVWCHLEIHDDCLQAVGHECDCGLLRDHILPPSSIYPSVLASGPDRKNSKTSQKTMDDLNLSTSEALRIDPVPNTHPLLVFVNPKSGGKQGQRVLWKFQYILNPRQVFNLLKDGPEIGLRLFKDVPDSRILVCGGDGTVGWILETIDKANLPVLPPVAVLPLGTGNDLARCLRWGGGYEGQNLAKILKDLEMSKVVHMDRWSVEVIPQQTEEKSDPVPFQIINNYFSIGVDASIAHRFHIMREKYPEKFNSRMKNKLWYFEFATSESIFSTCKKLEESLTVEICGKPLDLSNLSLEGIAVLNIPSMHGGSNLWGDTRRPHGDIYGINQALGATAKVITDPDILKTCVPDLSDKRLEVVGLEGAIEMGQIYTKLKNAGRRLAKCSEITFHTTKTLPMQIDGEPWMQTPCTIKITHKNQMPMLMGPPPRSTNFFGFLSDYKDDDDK
IC50 by entry:

Smiles Input: COc1ccc2c(c1)c(N1CCC(Oc3ccc(OC(F)(F)F)cc3)CC1)c(C#N)c(=O)n2C
IC50 / nM: 7
--
Smiles Input: Cn1c(=O)c(C(N)=O)c(N2CCC(OCc3ccc(F)cc3)CC2)c2ccccc21
IC50 / nM: 14
--
Smiles Input: COCCc1ccc2c(N3CCC(Oc4cccc(OC(F)(F)F)c4)CC3)c(C#N)c(=O)n(C)c2c1
IC50 / nM: 6.8
--
Smiles Input: Cc1ccc2c(c1)c(N1CCC(Oc3ccccc3C#N)CC1)c(C#N)c(=O)n2C
IC50 / nM: 9.3
--
Smiles Input: Cn1c(=O)c(C#N)c(N2CCC(Oc3ccc(Cl)cc3)CC2)c2ccc(N3CCCC3=O)cc21
IC50 / nM: 28

* * *

Target: DGKα (Homo sapiens)
pIC50: −log10 of the molar value.
Label fulfilled for high-side pIC50 (at or above 8) and not fulfilled for low-side pIC50 (below it).

Compound: Cn1c(=O)c(C(N)=O)c(N2CCC(Oc3ccc(OC(F)(F)F)cc3)CC2)c2cc(F)ccc21
Target System: DGKα (Homo sapiens)
Label: fulfilled
--
Compound: Cn1c(=O)c(C#N)c(N2CCC(Oc3ccc4cnoc4c3)CC2)c2ccccc21
Target System: DGKα (Homo sapiens)
Label: not fulfilled
--
Compound: Cn1cc(-c2ccc(OC3CCCN(c4c(C#N)c(=O)n(C)c5ccccc45)CC3)cc2)cn1 (racemic)
Target System: DGKα (Homo sapiens)
Label: not fulfilled
--
Compound: Cn1c(=O)c(C#N)c(N2CCC(Oc3ccc(OC(F)(F)F)cc3)CC2)c2ccc(Br)cc21
Target System: DGKα (Homo sapiens)
Label: not fulfilled
--
Compound: Cn1c(=O)c(C#N)c(N2CCC(Oc3ccc(C(F)(F)F)cc3)CC2)c2ccc(Br)cc21
Target System: DGKα (Homo sapiens)
Label: not fulfilled
--
Compound: CN1CCN(c2ccc3c(N4CCC(Oc5cccc(Cl)c5)CC4)c(C#N)c(=O)n(C)c3c2)CC1
Target System: DGKα (Homo sapiens)
Label: not fulfilled
--
Compound: COCCc1ccc2c(N3CCC(Oc4cccc(Cl)c4)CC3)c(C#N)c(=O)n(C)c2c1
Target System: DGKα (Homo sapiens)
Label: fulfilled

* * *

pIC50: −log10 of the molar value.
System: DGKα (Homo sapiens, UniProt P23743) | Read-out: pIC50

Smiles Input: COc1cccc(COC2CCN(c3c(C(N)=O)c(=O)n(C)c4ccccc34)CC2)c1
pIC50: 7.37
//
Smiles Input: Cn1c(=O)c(C#N)c(N2CCC(Cc3ccccc3)CC2)c2ccccc21
pIC50: 8.35
//
Smiles Input: Cn1c(=O)c(C#N)c(N2CCC(Sc3ccccc3)CC2)c2ccc(C3CC3)cc21
pIC50: 7.54
//
Smiles Input: Cn1c(=O)c(C#N)c(N2CCC(Oc3ccc(OC(F)(F)F)cc3)CC2)c2cccc(N=S(C)(C)=O)c21
pIC50: 7.43
//
Smiles Input: Cn1c(=O)c(C#N)c(N2CCC(Oc3ccc(C#N)cc3)CC2)c2ccccc21
pIC50: 7.51

* * *

System: DGKα (Homo sapiens, UniProt P23743) | Read-out: IC50

Smiles Input: Cn1c(=O)c(C#N)c(N2CCC(Oc3ccc(Cl)cc3)CC2)c2ccc(Br)cc21
Unit Spec: µM
IC50: 0.017
--
Smiles Input: COc1ccc(COC2CCN(c3c(C#N)c(=O)n(C)c4ccccc34)CC2)cc1
Unit Spec: µM
IC50: 0.016
--
Smiles Input: Cn1c(=O)c(C#N)c(N2CCC(C)(Oc3ccc([N+](=O)[O-])cc3)CC2)c2ccccc21
Unit Spec: µM
IC50: 0.011
--
Smiles Input: COc1cccc(OC2CCN(c3c(C(N)=O)c(=O)n(C)c4ccc(C)cc34)CC2)c1
Unit Spec: µM
IC50: 0.012
